System: kochia (Bassia scoparia)
Assay: Test A preemergence, kochia
Type: in vivo
Settings: Preemergence, 500 g ai/ha; 0 to 100 scale (0 no effect, 100 complete control)
quantity name: Plant response rating, Kochia

[[record]]
molecule = "Cc1cc(C)c(-c2ccnn(CC(F)(F)F)c2=O)cc1NS(=O)(=O)C(F)(F)F"
study_system = "kochia (Bassia scoparia)"
result = 60

[[record]]
molecule = "Cc1cc(C)c(-n2nccc(Cl)c2=O)cc1NS(=O)(=O)C(F)(F)F"
study_system = "kochia (Bassia scoparia)"
result = 90

[[record]]
molecule = "COC1CCN(C(=O)c2cc(NS(=O)(=O)C(F)(F)F)c(C)c(F)c2C)CC1"
study_system = "kochia (Bassia scoparia)"
result = 100

[[record]]
molecule = "Cc1cc(C(F)(F)F)c(NS(=O)(=O)C(F)(F)F)cc1C(=O)N(C)C"
study_system = "kochia (Bassia scoparia)"
result = 70


Form entry - test system: kochia (Bassia scoparia); read-out: Plant response rating, Kochia; molecule: COc1cnn(-c2cc(NS(=O)(=O)C(F)(F)F)c(C)cc2C)c(=O)c1
90

Form entry - test system: kochia (Bassia scoparia); read-out: Plant response rating, Kochia; molecule: Cc1cc(C)c(C2=NOC3CCCC23)cc1NS(=O)(=O)C(F)(F)F (centres unmarked) [Compound 164]
100

Form entry - test system: kochia (Bassia scoparia); read-out: Plant response rating, Kochia; molecule: Cc1cc(C)c(C(=O)N2CCC3(CCCC3)CC2)cc1NS(=O)(=O)C(F)(F)F
20

Form entry - test system: kochia (Bassia scoparia); read-out: Plant response rating, Kochia; molecule: Cc1cc(C)c(N(S(=O)(=O)C(F)(F)F)S(=O)(=O)C(F)(F)F)cc1-c1cc(C(C)C)nn(C)c1=O
0

###

System: kochia (Bassia scoparia)
Assay: Test A postemergence, kochia
Type: in vivo
Settings: Postemergence, 125 g ai/ha; visual injury approx. 10 days; 0 to 100 scale (0 no effect, 100 complete control)
Let's look at some compounds and their measured Plant response rating, Kochia.

[[record]]
compound = "Cc1cc(C)c(C2=NOC3CCCCC23)cc1NS(=O)(=O)C(F)(F)F (centres unmarked) [Compound 123]"
study_system = "kochia (Bassia scoparia)"
quantity_name = "Plant response rating, Kochia"
result = 50

[[record]]
compound = "COC1CCCN(C(=O)c2cc(N(C(C)=O)S(=O)(=O)C(F)(F)F)c(C)cc2C)C1 (centres unmarked) [Compound 93]"
study_system = "kochia (Bassia scoparia)"
quantity_name = "Plant response rating, Kochia"
result = 30

[[record]]
compound = "Cc1cc(C)c(C2=NOC(C(C)(C)C)C2)cc1NS(=O)(=O)C(F)(F)F (centres unmarked) [Compound 108]"
study_system = "kochia (Bassia scoparia)"
quantity_name = "Plant response rating, Kochia"
result = 30

[[record]]
compound = "Cc1cc(C)c(N(S(=O)(=O)C(F)(F)F)S(=O)(=O)C(F)(F)F)cc1C1=NOC(C(C)(C)C)C1 (centres unmarked) [Compound 127]"
study_system = "kochia (Bassia scoparia)"
quantity_name = "Plant response rating, Kochia"
result = 10


Form entry - test system: kochia (Bassia scoparia); read-out: Plant response rating, Kochia; compound: Cc1cc(C)c(N(S(=O)(=O)C(F)(F)F)S(=O)(=O)C(F)(F)F)cc1C1=NOC2(CCC(C)(C)CC2)C1 [Compound 139]
0

Form entry - test system: kochia (Bassia scoparia); read-out: Plant response rating, Kochia; compound: Cc1cc(C(F)(F)F)c(NS(=O)(=O)C(F)(F)F)cc1C(=O)N(C)C [Compound 132]
20

Form entry - test system: kochia (Bassia scoparia); read-out: Plant response rating, Kochia; compound: Cc1cc(Cl)c(NS(=O)(=O)C(F)(F)F)cc1C(=O)N1CC(C)OC(C)C1 (centres unmarked) [Compound 20]
10

Form entry - test system: kochia (Bassia scoparia); read-out: Plant response rating, Kochia; compound: Cc1cc(C)c(N(S(=O)(=O)C(F)(F)F)S(=O)(=O)C(F)(F)F)cc1C1=NOC2CCCC12 (centres unmarked) [Compound 99]
40

###

Test system: galium (catchweed bedstraw, Galium aparine)
Test: Test A postemergence, galium
Type: in vivo
Details: Postemergence, 125 g ai/ha; 0 to 100 scale (0 no effect, 100 complete control)
Let's look at some molecules and their measured Plant response rating, Galium.
// return just the number, without any unit appended

The examples below pair each entry with its known result.
[[record]]
molecule = "Cc1cc(C)c(N(S(=O)(=O)C(F)(F)F)S(=O)(=O)C(F)(F)F)cc1C(=O)N1CCC(Cl)CC1 [Compound 243]"
numeric_value = 70

[[record]]
molecule = "Cc1cc(F)c(C(=O)N2CCC(C#N)CC2)cc1N(S(=O)(=O)C(F)(F)F)S(=O)(=O)C(F)(F)F [Compound 239]"
numeric_value = 0

[[record]]
molecule = "Cc1cc(Cl)c(N(S(=O)(=O)C(F)(F)F)S(=O)(=O)C(F)(F)F)cc1C1=NOC(C)(C)C1 [Compound 222]"
numeric_value = 90

[[record]]
molecule = "Cc1cc(C)c(N(COC(=O)CC(C)C)S(=O)(=O)C(F)(F)F)cc1C1=NOC2(CCCC2)C1 [Compound 152]"
numeric_value = 60

[[record]]
molecule = "Cc1cc(Cl)c(NS(=O)(=O)C(F)(F)F)cc1C(=O)N1CCOCC1C (stereo not drawn) [Compound 245]"
numeric_value = 90


# input for lookup
Form entry - test system: galium (catchweed bedstraw, Galium aparine); read-out: Plant response rating, Galium; molecule: Cc1cc(C)c(N2CC3(CCOCC3)OC2=O)cc1NS(=O)(=O)C(F)(F)F [Compound 156]
100

###

Tested on: Foxtail, Giant (giant foxtail, Setaria faberi)
Assay: Test A postemergence, Foxtail, Giant
Type: in vivo
Conditions: Postemergence, 500 g ai/ha; visual injury, 0 to 100 scale (0 no effect, 100 complete control), approx. 10 days
quantity name: Plant response rating, Foxtail, Giant
// return just the number, without any unit appended

The examples below pair each entry with its known result.
[[record]]
compound = "Cc1cc(C)c(N(S(=O)(=O)C(F)(F)F)S(=O)(=O)C(F)(F)F)cc1-c1cn(C)c(=O)n(C)c1=O [Compound 42]"
study_system = "Foxtail, Giant (giant foxtail, Setaria faberi)"
numeric_value = 90

[[record]]
compound = "O=C(c1ccc(Cl)c(NS(=O)(=O)C(F)(F)F)c1)N1CCOCC1 [Compound 15]"
study_system = "Foxtail, Giant (giant foxtail, Setaria faberi)"
numeric_value = 50

[[record]]
compound = "CCn1cc(-c2cc(NS(=O)(=O)C(F)(F)F)c(C)cc2C)c(=O)n(C)c1=O [Compound 32]"
study_system = "Foxtail, Giant (giant foxtail, Setaria faberi)"
numeric_value = 90


# input for lookup
# Plant response rating, Foxtail, Giant lookup, item CCc1cc(-c2cc(N(S(=O)(=O)C(F)(F)F)S(=O)(=O)C(F)(F)F)c(C)cc2C)c(=O)n(C)n1 [Compound 28]
10

###

Let's look at some compounds and their measured Plant response rating, Foxtail, Giant.
Test system: Foxtail, Giant (giant foxtail, Setaria faberi)
Assay: Test A preemergence, Foxtail, Giant
Type: in vivo
Conditions: Preemergence, 125 g ai/ha; visual injury, 0 to 100 scale (0 no effect, 100 complete control), approx. 10 days
// return just the number, without any unit appended

The examples below pair each entry with its known result.
[[record]]
cpd_smiles = "Cc1cc(Cl)c(C(=O)N(C)C)cc1N(S(=O)(=O)C(F)(F)F)S(=O)(=O)C(F)(F)F"
numeric_value = 30

[[record]]
cpd_smiles = "Cc1cc(Cl)c(NS(=O)(=O)C(F)(F)F)cc1C(=O)N1CCC(Cl)CC1"
numeric_value = 90

[[record]]
cpd_smiles = "CC(=O)N(c1cc(N2CCC3(CCCCC3)C2=O)c(C)cc1C)S(=O)(=O)C(F)(F)F"
numeric_value = 100


Form entry - test system: Foxtail, Giant (giant foxtail, Setaria faberi); read-out: Plant response rating, Foxtail, Giant; compound: Cc1cc(F)c(C(=O)N2CCC(C#N)CC2)cc1N(S(=O)(=O)C(F)(F)F)S(=O)(=O)C(F)(F)F
20

###

Let's look at some compounds and their measured Foxtail, Giant plant response rating.
System: Foxtail, Giant (giant foxtail, Setaria faberi)
Assay: Test A preemergence, Foxtail, Giant
Assay type: in vivo
Conditions: Preemergence, 125 g ai/ha; visual injury on 0 to 100 scale (0 no effect, 100 complete control), approximately 10 days
// return just the number, without any unit appended

The examples below pair each entry with its known result.
[[record]]
compound = "Cc1cc(C)c(N2CC3(CCOCC3)OC2=O)cc1NS(=O)(=O)C(F)(F)F [Compound 156]"
quantity_name = "Foxtail, Giant plant response rating"
numeric_value = 100

[[record]]
compound = "Cc1cc(C)c(N(S(=O)(=O)C(F)(F)F)S(=O)(=O)C(F)(F)F)cc1-c1cc(Br)nn(C)c1=O [Compound 67]"
quantity_name = "Foxtail, Giant plant response rating"
numeric_value = 90

[[record]]
compound = "Cc1cc(C#N)c(C(=O)N2CCCCC2)cc1NS(=O)(=O)C(F)(F)F [Compound 126]"
quantity_name = "Foxtail, Giant plant response rating"
numeric_value = 20


# input for lookup
# Foxtail, Giant plant response rating lookup, item Cc1cc(C)c(-c2cc(C(F)(F)F)nn(C)c2=O)cc1NS(=O)(=O)C(F)(F)F [Compound 71]
80
